Data origin: patent US20040242870A1

Tested on: PBMCs
Assay: PBMC cytotoxicity in time-of-addition assay
Assay type: cell-based, Human
Conditions: 6 h post infection
Provide the recorded TC50 for the entries that follow.

Below, each entry is followed by its recorded TC50 result.
{"Compound": "CC(C)=CCCC1(C)CCc2c(O)cc(C(C)(C)CCCC(C)C)cc2O1 (stereo not shown)", "TC50": ">100 µM"}
{"Compound": "COc1cc(C(C)(C)CCCC(C)C)cc(OC)c1OC", "TC50": ">100 µM"}
{"Compound": "C=C(C)[C@@H]1CCC(C)=C[C@H]1c1c(O)cc(CCCCC)cc1O [Cannabidiol, reference compound]", "TC50": ">100 µM"}

Okay, now this compound:
Test item Cc1cn([C@H]2C[C@H](N=[N+]=[N-])[C@@H](CO)O2)c(=O)[nH]c1=O [AZT, reference compound] ; PBMCs; reported TC50 was >4 µM
